meta.source: the supplement of paper PMC10567573

Listed next: entries and their corresponding protein stability index.
B1: TOR1AIP2 (parent)
chain: DGAGRTWQDSDTVKLLVDLELSYG

Variants of: B1
Assay: protein stability index of a GFP-peptide fusion (GPS, HEK-293T) (PSI 1-6); higher = more stable;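 note: lentivirally expressed fusions sorted by FACS into six bins by GFP to DsRed ratio, PSI derived from sequencing read proportions per bin multiplied by bin number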
Conditions: c terminus: a fixed tail appended
I only need the number, thanks.

Examples with answers:
D1T = 3.05
S22Q = 2.61
W7H = 2.83
V13N = 3.08
D18I = 4.08

Inquiry: # return recorded protein stability index for input Y23M
Reply text: 5.21
